Assayed system: human mAChR M1 (Homo sapiens, UniProt P11229)
Experiment summary: mAChR M1 cell-based functional assay: calcium mobilization, positive allosteric modulator mode (increase in EC20 acetylcholine response)
Condition label: Table 2; human M1; read-out: Human M1 Emax (%)
Property name: Emax (%)

Compound	Property name	Recorded measurement
COCC(C)NC(=O)c1cc(Cc2ccc(-c3ccn(C)n3)nc2)c2sccc2n1 (stereo not shown)	Emax	68.6
Cn1ncc2nc(C(=O)NC[C@H]3CCCO3)cc(Cc3ccc(-c4cscn4)cc3)c21	Emax	65.1
Cc1csc2c(Cc3ccc(-n4cccn4)cc3)cc(C(=O)NC[C@@H]3CCCO3)nc12	Emax	76.8
Cn1ccc(-c2ccc(Cc3cc(C(=O)NC4CCOCC4(C)C)nc4ccn(C)c34)cn2)n1 (stereo not shown)	Emax	79.4

---

Assayed system: human mAChR M1 (Homo sapiens, UniProt P11229)
Experiment summary: mAChR M1 cell-based functional assay: calcium mobilization, positive allosteric modulator mode (increase in EC20 acetylcholine response)
Condition label: Table 2; human M1; read-out: Human M1 EC50
Property name: EC50 (µM)

I: Cc1csc2c(Cc3ccc(-n4cccn4)cc3)cc(C(=O)N[C@H]3CCOC[C@@H]3O)nc12 [Compound 269]
II: Cc1csc2c(Cc3ccc(-n4cccn4)cc3)cc(C(=O)NC[C@@H]3CCCO3)nc12 [Compound 323]
III: Cc1nc(-c2ccc(Cc3cc(C(=O)NC4CN(C(C)(C)C)C4)nc4ccsc34)cc2)cs1 [Compound 179]
IV: Cc1nn(C)cc1-c1ccc(Cc2cc(C(=O)NC3COC3)nc3ccsc23)cc1 [Compound 244]
Returns the items ordered by EC50, from maximum to minimum. Lab note: record answer as labels in requested order.
III, II, IV, I

---

Assayed system: human mAChR M1 (Homo sapiens)
Experiment summary: mAChR M1 cell-based functional assay: calcium mobilization, positive allosteric modulator mode (increase in EC20 acetylcholine response)
Condition label: Table 2; human M1; read-out: Human M1 EC50
Property name: EC50 (nM)

P: O=C(NC1CCCCNC1=O)c1cc(Cc2ccc(-n3cccn3)cc2)c2sccc2n1 (stereo not shown) [Compound 79]
Q: Cc1nc(-c2ccc(Cc3cc(C(=O)N[C@@H]4CCCCC[C@H]4O)nc4ccsc34)cc2)co1 [Compound 170]
Look at P and Q . Which one has the lower recorded EC50 number? State the label of the item chosen.
Q
(Q: 150 nM, P: 397 nM)

---

Assayed system: human mAChR M1 (Homo sapiens, UniProt P11229)
Sequence (P11229 1-460): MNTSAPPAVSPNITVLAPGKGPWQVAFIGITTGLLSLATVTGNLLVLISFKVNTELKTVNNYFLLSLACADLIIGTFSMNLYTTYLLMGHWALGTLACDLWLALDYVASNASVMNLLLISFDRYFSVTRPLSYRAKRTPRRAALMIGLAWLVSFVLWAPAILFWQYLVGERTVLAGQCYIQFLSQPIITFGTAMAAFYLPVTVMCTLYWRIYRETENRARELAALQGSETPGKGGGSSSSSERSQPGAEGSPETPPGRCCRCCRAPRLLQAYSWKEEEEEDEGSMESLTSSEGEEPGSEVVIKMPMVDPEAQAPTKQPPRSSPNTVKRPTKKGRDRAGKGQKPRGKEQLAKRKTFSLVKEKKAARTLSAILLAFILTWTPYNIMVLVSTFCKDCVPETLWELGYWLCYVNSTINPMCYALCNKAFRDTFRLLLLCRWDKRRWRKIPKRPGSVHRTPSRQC
Experiment summary: mAChR M1 cell-based functional assay: calcium mobilization, positive allosteric modulator mode (increase in EC20 acetylcholine response)
Condition label: Table 2; human M1; read-out: Human M1 EC50
Experimental: a. Cell Lines Expressing Muscarinic Acetylcholine Receptors Chinese hamster ovary (CHO-K1) cells stably expressing rat (r)M1 were purchased from the American Type Culture Collection and cultured according to their indicated protocol. […] Calcium flux was measured using the Functional Drug Screening System (FDSS) 6000 (Hamamatsu Corporation, Tokyo, Japan) as an increase in the fluorescent static ratio. […]
Property name: EC50 (nM)

Compound	EC50, nM
Cc1ccc([C@@H](F)c2cc(C(=O)N[C@H]3CCCC[C@@H]3O)nc3ccsc23)cn1 [Compound 234]	1370

A: Cn1ccc(-c2ccc(Cc3cc(C(=O)NC4CCOCC4(C)C)nc4ccn(C)c34)cn2)n1 (centres unmarked) [Compound 505]
B: O=C(NC1CC(F)(F)C1)c1cc(Cc2ccc(-n3cccn3)cc2)c2sccc2n1 [Compound 281]
C: Cc1csc2c(Cc3ccc(-c4ccn(C)n4)cc3)cc(C(=O)N[C@H]3CCC[C@@H]3O)nc12 [Compound 303]
List these items ordered by EC50, big to small. Lab note: record answer as labels in requested order.
A, C, B

1: COCCCNC(=O)c1cc(Cc2ccc(-c3cncs3)cc2)c2sccc2n1 [Compound 404]
2: O=C(NC1CCCNC1=O)c1cc(Cc2ccc(-c3cscn3)cc2)c2sccc2n1 (centres unmarked) [Compound 221]
3: O=C(NC[C@H]1CCCO1)c1cc(Cc2ccc(-n3cccn3)cc2)c2sccc2n1 [Compound 287]
4: Cn1cc(-c2ccc(Cc3cc(C(=O)NC4CCCOC4)nc4ccsc34)cc2)nn1 (centres unmarked) [Compound 152]
5: CCN1CCC[C@H]1CNC(=O)c1cc(Cc2ccc(-c3ccn(C)n3)nc2)c2sccc2n1 [Compound 428]
List these items ordered by EC50, big to small. Lab note: record answer as labels in requested order.
1, 5, 2, 4, 3
(1: 3570 nM, 5: 1890 nM, 2: 595 nM, 4: 272 nM, 3: 49.4 nM)

1: Cc1nc(-c2ccc(Cc3cc(C(=O)N[C@H]4CCCC[C@@H]4O)nc4ccsc34)cc2)cs1 [Compound 194]
2: O=C(NCC1CCOCC1)c1cc(Cc2ccc(-c3nccs3)cc2)c2sccc2n1 [Compound 298]
Between 1 and 2 , whose measured EC50 reads higher? State the label of the item chosen.
2

I: C[C@H]1COCC[C@@H]1NC(=O)c1cc(Cc2ccc(-c3cncs3)cc2)c2sccc2n1 [Compound 393]
II: Cn1ccc2nc(C(=O)N[C@H]3CCC[C@@H]3O)cc(Cc3ccc(-c4nccs4)cc3)c21 [Compound 483]
III: O=C(NC1CCCCNC1=O)c1cc(Cc2ccc(-c3cscn3)cc2)c2sccc2n1 (centres unmarked) [Compound 222]
Hey, quick one: sort these by EC50, low to high? Lab note: record answer as labels in requested order.
II, III, I

1: O=C(N[C@H]1CCCNC1)c1cc(Cc2ccc(-n3cccn3)cc2)c2sccc2n1 [Compound 290]
2: CC(C)(C)N1CC(NC(=O)c2cc(Cc3ccc(-c4cscn4)cc3)c3sccc3n2)C1 [Compound 203]
3: Cn1cc(-c2ccc(Cc3cc(C(=O)N[C@@H]4CCCOC4)nc4ccsc34)cn2)cn1 [Compound 361]
4: O=C(NCC1CCOCC1)c1cc(Cc2ccc(-c3cncs3)cc2)c2sccc2n1 [Compound 387]
Hey, quick one: sort these by EC50, low to high? Lab note: record answer as labels in requested order.
3, 4, 2, 1

a: O=C(NC1CC(F)C1)c1cc(Cc2ccc(-c3cncs3)cc2)c2sccc2n1 (centres unmarked) [Compound 401]
b: Cc1csc2c(Cc3ccc(-n4cccn4)cc3)cc(C(=O)NCC3CCOCC3)nc12 [Compound 318]
c: Cn1ccc2nc(C(=O)NC3CC4(COC4)C3)cc(Cc3ccc(-c4nccs4)cc3)c21 [Compound 481]
d: O=C(N[C@H]1CC[C@@H]1O)c1cc(Cc2ccc(-c3nccs3)cc2)c2sccc2n1 [Compound 297]
e: Cn1ccc2nc(C(=O)N[C@H]3CCCOC3)cc(Cc3ccc(-c4cscn4)cc3)c21 [Compound 462]
Hey, quick one: sort these by EC50, low to high? Lab note: record answer as labels in requested order.
d, c, b, e, a
(d: 225 nM, c: 386 nM, b: 1410 nM, e: 2050 nM, a: 4570 nM)

a: Cn1ncc2nc(C(=O)N[C@H]3CCOC[C@@H]3O)cc(Cc3ccc(-c4cscn4)cc3)c21 [Compound 493]
b: Cn1cc(-c2ccc(Cc3cc(C(=O)N[C@H]4CCCC[C@@H]4O)nc4ccsc34)cn2)cn1 [Compound 224]
c: Cn1cc(-c2ccc(Cc3cc(C(=O)N[C@H]4CCCOC4)nc4ccsc34)cn2)cn1 [Compound 347]
Hey, quick one: sort these by EC50, low to high? Lab note: record answer as labels in requested order.
b, a, c

I: Cn1ncc2nc(C(=O)NCC3CCO3)cc(Cc3ccc(-c4cscn4)cc3)c21 (centres unmarked) [Compound 494]
II: Cn1ccc2nc(C(=O)NC3CCOC(C)(C)C3)cc(Cc3ccc(-c4cscn4)cc3)c21 (centres unmarked) [Compound 461]
Look at I and II . Which one has the lower recorded EC50 number? State the label of the item chosen.
II

---

Assayed system: human mAChR M1 (Homo sapiens, UniProt P11229)
Experiment summary: mAChR M1 cell-based functional assay: calcium mobilization, positive allosteric modulator mode (increase in EC20 acetylcholine response)
Condition label: Table 2; human M1; read-out: Human M1 EC50
pEC50: −log10 of the molar value.
Property name: pEC50

Here is how some molecules turned out for pEC50.
Molecule	pEC50
COCCNC(=O)c1cc(Cc2ccc(-n3cccn3)cc2)c2sccc2n1	6.22
C[C@@H]1CC(NC(=O)c2cc(Cc3ccc(-c4cscn4)cc3)c3c(ccn3C)n2)C[C@H](C)O1 (stereo partly shown)	6.42
Cc1nc(-c2ccc(Cc3cc(C(=O)N[C@@H]4CCOC4)nc4ccsc34)cc2)cs1	5.60

P: Cn1cc(-c2ccc(Cc3cc(C(=O)NC4CC5(COC5)C4)nc4ccn(C)c34)cn2)cn1
Q: O=C1CC(NC(=O)c2cc(Cc3ccc(-n4cccn4)cc3)c3sccc3n2)CN1 (stereo not shown)
R: Cn1ccc2nc(C(=O)N[C@H]3CCCC[C@@H]3O)cc(Cc3ccc(-c4cscn4)cc3)c21
S: Cn1cc(-c2ccc(Cc3cc(C(=O)NC4CC5(COC5)C4)nc4ccsc34)cc2)nn1
List these items ordered by pEC50, big to small. Lab note: record answer as labels in requested order.
S, R, P, Q
(S: 7.75, R: 7.46, P: 6.41, Q: 5.83)

A: O=C(NCC1CCCO1)c1cc(Cc2ccc(-c3nccs3)cc2)c2sccc2n1 (stereo not shown)
B: Cn1ccc2nc(C(=O)N[C@H]3CCC[C@@H]3O)cc(Cc3ccc(-c4cscn4)cc3)c21
Between A and B , whose measured pEC50 reads higher? State the label of the item chosen.
B
(B: 6.89, A: 5.86)

1: Cc1ccc(Cc2cc(C(=O)NC3CCCCCC3(C)O)nc3ccsc23)cn1 (stereo not shown)
2: Cc1nc(-c2ccc(Cc3cc(C(=O)N[C@H]4COCC[C@@H]4O)nc4ccsc34)cc2)cs1
Look at 1 and 2 . Which one has the lower recorded pEC50 number? State the label of the item chosen.
1
(1: 6.00, 2: 7.51)
